Source: patent US20050003383A1

system: linoleate isomerase from Clostridium sporogenes; assay: C. sporogenes linoleate isomerase kinetic assay, absorbence at 234 nm, partially purified enzyme; format: biochemical; conditions: compound as substrate at 10 PPM; activity with linoleic acid set as 100%
Assign RELATIVE ACTIVITY % to each entry below.
The answer is to be given in %; state only the numeric part.

# query: RELATIVE ACTIVITY % of entry CCCCC/C=C\C/C=C\CCCCCCCC(=O)O [linoleic acid, (cis, cis)-9, 12-octadecadienoic acid]
100

Requested read-out: RELATIVE ACTIVITY %. Entry: `CCCCC/C=C\C/C=C\CCCCCCCCCC(=O)OC`
0

Param item = CCCCCC/C=C\CCCCCCCC(=O)O [palmitoleic acid, (cis)-9 hexadecenoic acid] ; retrieve measured RELATIVE ACTIVITY %.
0

# query: RELATIVE ACTIVITY % of entry CCCCC/C=C\C/C=C\CCCCCCCCCCCC(=O)O [(cis, cis)-13, 16 docosadienoic acid]
0

Report RELATIVE ACTIVITY % for `CCCCC/C=C\C/C=C\C/C=C\CCCCC(=O)O` please.
77

RELATIVE ACTIVITY % lookup needed for `CC/C=C\C/C=C\C/C=C\CCCCCCCC(=O)O` , thanks.
84

Could you share which RELATIVE ACTIVITY % value was measured for `CCCCC/C=C\C/C=C\C/C=C\CCCCCCC(=O)O` ?
0

What does the record list as RELATIVE ACTIVITY % for CCCCC/C=C\C/C=C\CCCCCCCC(=O)OC [methyl linoleate, (cis, cis)-linoleic acid methyl ester] ?
0

I'd like to know its RELATIVE ACTIVITY %. The compound in question is `CC/C=C\C/C=C\C/C=C\C/C=C\CCCCC(=O)O`
60

So what's the measured RELATIVE ACTIVITY % for this one? CCCCC/C=C\C/C=C\CCCCCCCCO [linoleyl alcohol, (cis, cis)-9, 12-octadecadien-1-ol]
0

Requested field: RELATIVE ACTIVITY %. Item: CCCCCCCC/C=C\CCCCCCCC(=O)O [oleic acid, (cis)-9 octadecenoic acid]
0

Look up RELATIVE ACTIVITY %: `CCCCC/C=C/C/C=C/CCCCCCCC(=O)O`
0

Quick one: RELATIVE ACTIVITY % for CCCCCCCC[C@H]1O[C@H]1CCCCCCCC(=O)O (relative stereo) [epoxystearic acid, (cis)-9:10-epoxyoctadecanoic] ?
0

Query: RELATIVE ACTIVITY %; subject: CCCCCCCC/C=C\CCCCCCCCCCCC(=O)O [erucic acid, (cis)-13-docosaenoic acid]
0

Quick one: RELATIVE ACTIVITY % for CCCCC/C=C\C/C=C\CCCCCCCCCC(=O)O [(cis, cis)-11, 14 eicosadienoic acid] ?
20

====

target: UniProt Q6A8X5; assay type: biochemical, Propionibacterium acnes; conditions: 60 minute assays
Sequence (Q6A8X5 entry or part of it): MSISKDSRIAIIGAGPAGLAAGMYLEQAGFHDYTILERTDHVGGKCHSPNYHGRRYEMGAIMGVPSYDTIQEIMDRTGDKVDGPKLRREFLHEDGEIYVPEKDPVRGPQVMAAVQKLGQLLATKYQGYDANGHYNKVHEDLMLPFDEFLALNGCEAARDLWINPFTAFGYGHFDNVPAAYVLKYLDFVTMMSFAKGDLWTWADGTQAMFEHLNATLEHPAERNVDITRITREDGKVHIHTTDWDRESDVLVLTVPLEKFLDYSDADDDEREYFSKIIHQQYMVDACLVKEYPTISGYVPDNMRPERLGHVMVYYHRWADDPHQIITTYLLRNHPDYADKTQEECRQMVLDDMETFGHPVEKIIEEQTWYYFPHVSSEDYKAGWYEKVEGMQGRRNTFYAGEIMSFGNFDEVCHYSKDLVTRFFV
REPORTED PROPERTY: effect of possible cofactors on isomerase activity

COMPOUND	OBSERVED RESULT
NC(=O)c1ccc[n+]([C@@H]2O[C@H](COP(=O)([O-])OP(=O)(O)OC[C@H]3O[C@@H](n4cnc5c(N)ncnc54)[C@H](OP(=O)(O)O)[C@@H]3O)[C@@H](O)[C@H]2O)c1 [NADP]	No significant effect
Cc1cc2nc3c(=O)[nH]c(=O)nc-3n(C[C@H](O)[C@H](O)[C@H](O)COP(=O)(O)O)c2cc1C [FMN]	No significant effect
NC(=O)C1=CN([C@@H]2O[C@H](COP(=O)(O)OP(=O)(O)OC[C@H]3O[C@@H](n4cnc5c(N)ncnc54)[C@H](O)[C@@H]3O)[C@@H](O)[C@H]2O)C=CC1 [NADH]	No significant effect

====

tested on: linoleate isomerase from Clostridium sporogenes; experiment: C. sporogenes linoleate isomerase kinetic assay, absorbence at 234 nm, partially purified enzyme; type: biochemical; settings: isomerization of (cis, cis, cis, cis)-6, 9, 12, 15 octadecatetraenoic acid 20 PPM; cofactor 50 μM, DTT 1 mM
Assign Activity to each entry below.
Please respond with the number in nmol/min and leave the unit unwritten.

Entry under review: NC(=O)C1=CN([C@@H]2O[C@H](COP(=O)(O)OP(=O)(O)OC[C@H]3O[C@@H](n4cnc5c(N)ncnc54)[C@H](O)[C@@H]3O)[C@@H](O)[C@H]2O)C=CC1 [NADH] . Reported Activity?
6.4

Fill in the blank: the reported Activity of NC(=O)c1ccc[n+]([C@@H]2O[C@H](COP(=O)([O-])OP(=O)(O)OC[C@H]3O[C@@H](n4cnc5c(N)ncnc54)[C@H](O)[C@@H]3O)[C@@H](O)[C@H]2O)c1 [NAD] is ____.
5.6

Would you mind telling me what Activity value was observed for Nc1ncnc2c1ncn2[C@@H]1O[C@H](COP(=O)(O)OP(=O)(O)O)[C@@H](O)[C@H]1O [ADP] ?
5.7

====

So I've got a bunch of molecules here, and I need their Activity (%) values.
tested on: linoleate isomerase from Clostridium sporogenes; assay: C. sporogenes linoleate isomerase kinetic assay, absorbence at 234 nm, partially purified enzyme; type: biochemical; conditions: isomerization of (cis, cis, cis, cis)-6, 9, 12, 15 octadecatetraenoic acid 20 PPM; cofactor 50 μM, DTT 1 mM; no cofactor = 100
// return numeric value only (unit: %, not printed)

Name the reported Activity (%) value associated with the molecule Nc1ncnc2c1ncn2[C@@H]1O[C@H](COP(=O)(O)OP(=O)(O)O)[C@@H](O)[C@H]1O [ADP]
92

What does the data say about its Activity (%)? Entry: Nc1ncnc2c1ncn2[C@@H]1O[C@H](COP(=O)(O)OP(=O)(O)OP(=O)(O)O)[C@@H](O)[C@H]1O [ATP]
98

Look up Activity (%) for this molecule: NC(=O)c1ccc[n+]([C@@H]2O[C@H](COP(=O)([O-])OP(=O)(O)OC[C@H]3O[C@@H](n4cnc5c(N)ncnc54)[C@H](O)[C@@H]3O)[C@@H](O)[C@H]2O)c1 [NAD]
90

Any idea what its Activity (%) is? The molecule is CC(C)(COP(=O)(O)OP(=O)(O)OC[C@H]1O[C@@H](n2cnc3c(N)ncnc32)[C@H](O)[C@@H]1OP(=O)(O)O)[C@@H](O)C(=O)NCCC(=O)NCCS [CoA]
105

I am curious: what Activity (%) value has been reported for NC(=O)C1=CN([C@@H]2O[C@H](COP(=O)(O)OP(=O)(O)OC[C@H]3O[C@@H](n4cnc5c(N)ncnc54)[C@H](OP(=O)(O)O)[C@@H]3O)[C@@H](O)[C@H]2O)C=CC1 [NADPH] ?
102

Which Activity (%) value is on record for O[C@H](CS)[C@H](O)CS (racemic) [DTT, dithiothreitol] ?
95

I have this molecule here, NC(=O)C1=CN([C@@H]2O[C@H](COP(=O)(O)OP(=O)(O)OC[C@H]3O[C@@H](n4cnc5c(N)ncnc54)[C@H](O)[C@@H]3O)[C@@H](O)[C@H]2O)C=CC1 [NADH] , and I need its recorded Activity (%).
103

====

test system: linoleate isomerase from Clostridium sporogenes; assay: C. sporogenes linoleate isomerase kinetic assay, absorbence at 234 nm, partially purified enzyme; assay type: biochemical; conditions: compound added at 35 μM; substrate LA 35 μM; pH 7.5; LA alone = 100%
REPORTED PROPERTY: RELATIVE ACTIVITY % (%)
Write the answer as a number in %, unit excluded.

Consider the molecule shown here: `CCCCCCCCCCCCCCCC(=O)O` What is its recorded RELATIVE ACTIVITY %?
93

Which RELATIVE ACTIVITY % is reported for this molecule? CCCCC/C=C\C/C=C\CCCCCCCCO [linoleyl alcohol, (cis, cis)-9, 12-octadecadien-1-ol]
81

# get_value(readout='RELATIVE ACTIVITY %', item= CCCCC/C=C\C/C=C\CCCCCCCC(=O)OC [methyl linoleate, (cis, cis)-linoleic acid methyl ester] )
69

Which measured RELATIVE ACTIVITY % value corresponds to CCCCCC/C=C\CCCCCCCC(=O)O [palmitoleic acid, (cis)-9 hexadecenoic acid] ?
27
